- subject_of_test: KRAS G12V (Homo sapiens, UniProt P01116+P62937, G12V)
- Sequence (P01116 1-169 isoform P01116-2 G12V limits assumed): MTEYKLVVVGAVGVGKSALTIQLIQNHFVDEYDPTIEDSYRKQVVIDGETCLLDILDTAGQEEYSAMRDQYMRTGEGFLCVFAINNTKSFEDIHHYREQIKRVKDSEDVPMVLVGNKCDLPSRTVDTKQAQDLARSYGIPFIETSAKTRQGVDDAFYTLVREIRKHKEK
- Sequence (P62937 whole entry): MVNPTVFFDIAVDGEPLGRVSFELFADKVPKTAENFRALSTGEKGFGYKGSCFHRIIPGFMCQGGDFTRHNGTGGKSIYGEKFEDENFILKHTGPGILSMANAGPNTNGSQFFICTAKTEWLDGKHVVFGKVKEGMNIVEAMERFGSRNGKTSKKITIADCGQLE
- protocol_description: Disruption of BRAF RBD interaction with Ras (FRET / MOA assay, with Cyclophilin A)
- Type: biochemical
- measurement_parameters: KRAS G12V; read-out: KRAS G12V FRET data IC50
metric: IC50

For orientation, consider the following solved cases.
# compound, subject_of_test, metric, experimental_value
measured = [
    ("C=CC(=O)N1CC[C@H](C(=O)N(C)[C@H](C(=O)N[C@H]2Cc3cc(O)cc(c3)-c3ccc4c(c3)c(c(-c3ccc(CN(C)C)cc3)n4CC)CC(C)(C)COC(=O)[C@@H]3CCCN(N3)C2=O)C(C)C)C1 [Example A003]", "KRAS G12V (Homo sapiens, UniProt P01116+P62937, G12V)", "IC50", "1 to 10 µM"),
    ("CCn1c(-c2cccnc2COC)c2c3cc(ccc31)-c1cc(O)cc(c1)C[C@H](NC(=O)[C@H](C(C)C)N(C)C(=O)[C@H]1CCN(C(=O)/C=C\\CN(C)C)C1)C(=O)N1CCC[C@H](N1)C(=O)OCC(C)(C)C2 [Example A164]", "KRAS G12V (Homo sapiens, UniProt P01116+P62937, G12V)", "IC50", "0.1 to 1 µM"),
    ("CCn1c(-c2cc(N3CCN(C)CC3)cnc2[C@H](C)OC)c2c3cc(ccc31)-c1csc(n1)C[C@H](NC(=O)[C@H](C(C)C)N(C)C(=O)N1C[C@@H](C)N(C)C[C@H]1C)C(=O)N1CCC[C@H](N1)C(=O)OCC(C)(C)C2 (atropisomer, axis not shown) [Example A476]", "KRAS G12V (Homo sapiens, UniProt P01116+P62937, G12V)", "IC50", "0.1 to 1 µM"),
]

Now consider the entry below.
q: So what's the measured IC50 for this one? CCn1c(-c2cnccc2COC)c2c3cc(ccc31)-c1cc(O)cc(c1)C[C@H](NC(=O)[C@H](C(C)C)N(C)C(=O)[C@H]1CCN(S(=O)(=O)N3CC(N)C3)C1)C(=O)N1CCC[C@H](N1)C(=O)OCC(C)(C)C2 [Example A35]
a: 0.1 to 1 µM

----------
- subject_of_test: NRAS G12C (Homo sapiens, UniProt P01111+P62937, G12C)
- Sequence (P01111 whole entry G12C): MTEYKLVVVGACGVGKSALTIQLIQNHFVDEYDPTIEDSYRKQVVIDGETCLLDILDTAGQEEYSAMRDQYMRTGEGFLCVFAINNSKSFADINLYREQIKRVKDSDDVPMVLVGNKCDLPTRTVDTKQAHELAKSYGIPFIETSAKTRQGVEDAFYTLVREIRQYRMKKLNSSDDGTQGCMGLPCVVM
- Sequence (P62937 whole entry): as the sequence (P62937 whole entry) above
- protocol_description: Ras-Raf disruption / FRET / MOA assay (BRAF RBD)
- Format: biochemical
- measurement_parameters: NRAS G12C FRET data IC50, NRAS G12C
pIC50: −log10 of the molar value.
Entries annotated with measured pIC50

q: So what's the measured pIC50 for this one? CCn1c(-c2cccnc2[C@H](C)OC)c2c3cc(ccc31)-c1cccc(c1)C[C@H](NC(=O)[C@H](C(C)C)N(C)C(=O)CN(C)C(=O)[C@H]1CN1)C(=O)N1CCC[C@H](N1)C(=O)OCC(C)(C)C2 [Example 107]
a: 6.00 to 7.00

q: Another molecule to check: CCn1c(-c2cccnc2[C@H](C)OC)c2c3cc(ccc31)-c1cc(O)cc(c1)C[C@H](NC(=O)[C@H](C(C)C)N(C)C(=O)CN(C)C(=O)[C@@H]1CN1CC1COC1)C(=O)N1CCC[C@H](N1)C(=O)OCC(C)(C)C2 (stereo partly shown) [Example 278]
a: > 8.00

q: Another molecule to check: CCn1c(-c2cccnc2[C@H](C)OC)c2c3cc(ccc31)-c1cc(O)cc(c1)C[C@H](NC(=O)[C@H](C(C)C)N1CC[C@H](NC(=O)[C@H]3CN3)C1=O)C(=O)N1CCC[C@H](N1)C(=O)OCC(C)(C)C2 [Example 213]
a: 7.00 to 8.00

q: Another molecule to check: CCn1c(-c2cc(C3CCN(C)CC3)cnc2[C@H](C)OC)c2c3cc(ccc31)-c1cc(O)cc(c1)C[C@H](NC(=O)[C@H](C1CCCC1)N(C)C(=O)CN(C)C(=O)[C@H]1CN1)C(=O)N1CCC[C@H](N1)C(=O)OCC(C)(C)C2 [Example 230]
a: > 8.00

----------
- subject_of_test: KRAS G13C (Homo sapiens, UniProt P01116+P62937, G13C)
- Sequence (P01116 1-169 isoform P01116-2 G13C limits assumed): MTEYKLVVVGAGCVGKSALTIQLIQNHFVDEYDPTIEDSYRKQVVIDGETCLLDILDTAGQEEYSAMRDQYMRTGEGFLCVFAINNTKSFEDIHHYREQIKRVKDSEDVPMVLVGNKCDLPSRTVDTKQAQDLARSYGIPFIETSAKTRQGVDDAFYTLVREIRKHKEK
- Sequence (P62937 whole entry): as the sequence (P62937 whole entry) above
- protocol_description: Ras-Raf disruption / FRET / MOA assay (BRAF RBD)
- Format: biochemical
- measurement_parameters: Ras-Raf disruption, with Cyclophilin A; read-out: KRAS G13C FRET data IC50
pIC50: −log10 of the molar value.
Entries annotated with measured pIC50

# molecule, metric, experimental_value
rows = [
    ("CCn1c(-c2cccnc2[C@H](C)OC)c2c3cc(ccc31)-c1cc(O)cc(c1)C[C@H](NC(=O)[C@H](C(C)C)N(C)C(=O)C1CN(S(=O)(=O)[C@H]3CN3C)C1)C(=O)N1CCC[C@H](N1)C(=O)OCC(C)(C)C2 (single isomer, unassigned)", "pIC50", "7.00 to 8.00"),
    ("CCn1c(-c2cnccc2COC)c2c3cc(ccc31)-c1cccc(c1)C[C@H](NC(=O)[C@H](C(C)C)N(C)C(=O)CCN=C=NCCCN1CCOCC1)C(=O)N1CCC[C@H](N1)C(=O)OCC(C)(C)C2", "pIC50", "5.00 to 6.00"),
    ("CCn1c(-c2cnccc2COC)c2c3cc(ccc31)-c1cccc(c1)C[C@H](NC(=O)[C@H](C(C)C)N(C)C(=O)CCN=C=NCCOC)C(=O)N1CCC[C@H](N1)C(=O)OCC(C)(C)C2", "pIC50", "5.00 to 6.00"),
    ("CCn1c(-c2cccnc2[C@H](C)OC)c2c3cc(ccc31)-c1cc(O)cc(c1)C[C@H](NC(=O)[C@H](C(C)C)N1CCC3(CCN(C(=O)[C@H]4CN4)C3)C1=O)C(=O)N1CCC[C@H](N1)C(=O)OCC(C)(C)C2 (stereo partly shown)", "pIC50", "7.00 to 8.00"),
    ("CCn1c(-c2cccnc2[C@H](C)OC)c2c3cc(ccc31)-c1cc(O)cc(c1)C[C@H](NC(=O)[C@@H](COC1CCN(C(=O)[C@H]3CN3)CC1)C(C)C)C(=O)N1CCC[C@H](N1)C(=O)OCC(C)(C)C2 (atropisomer, axis not shown)", "pIC50", "6.00 to 7.00"),
    ("CCn1c(-c2cccnc2[C@H](C)OC)c2c3cc(ccc31)-c1csc(n1)C[C@H](NC(=O)[C@H](C(C)C)N(C)C(=O)N1CCN(C(=O)[C@@H]3CN3)C[C@H]1C)C(=O)N1CCC[C@H](N1)C(=O)OCC(C)(C)C2", "pIC50", "6.00 to 7.00"),
    ("CCn1c(-c2cccnc2[C@H](C)OC)c2c3cc(ccc31)-c1cc(O)cc(c1)C[C@H](NC(=O)[C@H](C1CCCC1)N1CC[C@]3(CCN(C(=O)[C@@H]4N[C@@H]4C4CC4)C3)C1=O)C(=O)N1CCC[C@H](N1)C(=O)OCC(C)(C)C2", "pIC50", "7.00 to 8.00"),
    ("CCn1c(-c2cccnc2[C@H](C)OC)c2c3cc(ccc31)-c1cc(O)cc(c1)C[C@H](NC(=O)[C@H](C(C)C)N(C)C(=O)[C@H]1CCCN(C(=O)[C@H]3CN3)C1)C(=O)N1CCC[C@H](N1)C(=O)OCC(C)(C)C2", "pIC50", "6.00 to 7.00"),
    ("CCn1c(-c2cccnc2[C@H](C)OC)c2c3cc(ccc31)-c1cccc(c1)C[C@H](NC(=O)[C@H](C1CCCC1)N1CC[C@]3(CCN(C(=O)[C@@H]4N[C@@H]4C4CC4)C3)C1=O)C(=O)N1CCC[C@H](N1)C(=O)OCC(C)(C)C2", "pIC50", "6.00 to 7.00"),
    ("CCn1c(-c2cccnc2[C@H](C)OC)c2c3cc(ccc31)-c1cc(O)cc(c1)C[C@H](NC(=O)[C@H](C(C)C)N(C)C(=O)N1CC[C@@H](N(C)C(=O)[C@H]3CN3)C1)C(=O)N1CCC[C@H](N1)C(=O)OCC(C)(C)C2 (atropisomer, axis not shown)", "pIC50", "7.00 to 8.00"),
]

q: So what's the measured pIC50 for this one? "CCn1c(-c2cccnc2[C@H](C)OC)c2c3cc(ccc31)-c1csc(n1)C[C@H](NC(=O)[C@H](C(C)C)N(C)C(=O)N1CCN(C(=O)[C@H]3CN3)C[C@H]1C)C(=O)N1CCC[C@H](N1)C(=O)OCC(C)(C)C2"
a: 7.00 to 8.00

q: Another molecule to check: "CCn1c(-c2cccnc2[C@H](C)OC)c2c3cc(ccc31)-c1cccc(c1)C[C@H](NC(=O)[C@H](C(C)C)N(C)C(=O)CCN=C=NCc1ccccc1OC)C(=O)N1CCC[C@H](N1)C(=O)OCC(C)(C)C2"
a: 5.00 to 6.00

q: Another molecule to check: CCn1c(-c2cccnc2[C@H](C)OC)c2c3cc(ccc31)-c1csc(n1)C[C@H](NC(=O)[C@H](C(C)C)N(C)C(=O)N1CCCN(C(=O)[C@H]3CN3)CC1)C(=O)N1CCC[C@H](N1)C(=O)OCC(C)(C)C2 (atropisomer, axis not shown)
a: 6.00 to 7.00

q: Another molecule to check: CCn1c(-c2cccnc2[C@H](C)OC)c2c3cc(ccc31)-c1cc(O)cc(c1)C[C@H](NC(=O)[C@H](C(C)C)N(C)C(=O)N1CC(NC(=O)[C@H]3CN3)C1)C(=O)N1CCC[C@H](N1)C(=O)OCC(C)(C)C2 (atropisomer, axis not shown)
a: 7.00 to 8.00

q: Another molecule to check: CCn1c(-c2cccnc2[C@H](C)OC)c2c3cc(ccc31)-c1cc(O)cc(c1)C[C@H](NC(=O)[C@H](C(C)C)N(C)C(=O)[C@H]1C[C@H]3CC[C@@H](C1)N3C(=O)[C@H]1CN1)C(=O)N1CCC[C@H](N1)C(=O)OCC(C)(C)C2 (atropisomer, axis not shown)
a: 7.00 to 8.00

q: Another molecule to check: "CCn1c(-c2cccnc2[C@H](C)OC)c2c3cc(ccc31)-c1csc(n1)C[C@H](NC(=O)[C@H](C(C)C)N(C)C(=O)N1CCN(C(=O)[C@@H]3CN3)[C@@H](C)C1)C(=O)N1CCC[C@H](N1)C(=O)OCC(C)(C)C2"
a: 6.00 to 7.00
